- Assay system: human recombinant HDAC6 (Homo sapiens, UniProt Q9UBN7)
- Construct: purchased Calbiochem 382180
- Sequence (Q9UBN7 whole entry): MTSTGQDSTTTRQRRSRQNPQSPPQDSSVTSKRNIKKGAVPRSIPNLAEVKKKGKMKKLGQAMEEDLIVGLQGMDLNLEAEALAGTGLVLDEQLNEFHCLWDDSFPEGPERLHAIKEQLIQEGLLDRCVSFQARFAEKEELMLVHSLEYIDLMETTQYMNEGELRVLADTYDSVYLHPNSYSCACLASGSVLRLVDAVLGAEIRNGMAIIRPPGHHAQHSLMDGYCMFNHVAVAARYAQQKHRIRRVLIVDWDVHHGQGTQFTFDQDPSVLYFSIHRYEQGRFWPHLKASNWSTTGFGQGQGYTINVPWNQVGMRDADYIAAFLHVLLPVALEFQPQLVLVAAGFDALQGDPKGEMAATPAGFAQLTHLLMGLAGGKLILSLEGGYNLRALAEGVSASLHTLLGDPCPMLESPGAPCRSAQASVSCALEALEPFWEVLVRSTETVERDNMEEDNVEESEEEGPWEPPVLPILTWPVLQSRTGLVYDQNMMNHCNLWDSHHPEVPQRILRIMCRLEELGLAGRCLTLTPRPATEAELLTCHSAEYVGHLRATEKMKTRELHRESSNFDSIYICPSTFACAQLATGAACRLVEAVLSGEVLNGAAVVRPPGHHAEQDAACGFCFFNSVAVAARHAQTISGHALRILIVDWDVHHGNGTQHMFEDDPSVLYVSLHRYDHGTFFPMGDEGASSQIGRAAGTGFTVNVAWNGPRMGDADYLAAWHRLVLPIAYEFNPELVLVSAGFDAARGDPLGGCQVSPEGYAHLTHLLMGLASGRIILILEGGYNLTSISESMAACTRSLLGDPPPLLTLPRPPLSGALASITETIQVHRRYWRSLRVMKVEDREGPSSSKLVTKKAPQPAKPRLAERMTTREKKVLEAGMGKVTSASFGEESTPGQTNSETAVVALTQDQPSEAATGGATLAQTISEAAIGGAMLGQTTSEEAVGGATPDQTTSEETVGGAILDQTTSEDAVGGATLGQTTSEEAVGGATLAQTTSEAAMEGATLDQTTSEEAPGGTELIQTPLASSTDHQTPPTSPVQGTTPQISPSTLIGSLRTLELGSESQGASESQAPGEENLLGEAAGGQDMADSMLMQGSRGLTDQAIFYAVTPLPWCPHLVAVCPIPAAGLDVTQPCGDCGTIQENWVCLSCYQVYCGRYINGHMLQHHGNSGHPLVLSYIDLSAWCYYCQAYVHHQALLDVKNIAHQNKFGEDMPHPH
- Test name: HDAC6 enzyme activity inhibition assay (HDAC Fluorimetric Drug Discovery Kit)
- Format: biochemical
- Test conditions: human recombinant HDAC6, same protocol as HDAC1; read-out: HDAC6
- Method: In order to examine the HDAC6 selectivity of the compounds of formula I of the present invention by HDAC1 and HDAC6 enzymatic activity inhibition assays, an experiment was performed using a conventional substance as a control. HDAC enzyme activity was measured using a HDAC Fluorimetric Drug Discovery Kit (BML-AK511, 516, Enzo Life Science). […] Based on the resulting values, each IC5, value was calculated using GraphPad Prism4.0 program.
pIC50: −log10 of the molar value.
Answer class 0 if pIC50 is under 7, and class 1 if it is 7 or more.

Exercise: Kindly determine if pIC50 recorded for CN(C)[C@H]1CCN(C(=O)N(Cc2ccc(-c3nnc(C(F)F)o3)cc2F)c2cccc(Cl)c2F)C1 [Compound 21643] is above or exactly 7.
Key: class 1

Exercise: Identify whether the reported pIC50 of the following compound is 7 or greater: O=C(N1CCOCC1)N(Cc1ccc(-c2nnc(C(F)(F)F)o2)cc1F)c1cccc(Cl)c1 [Compound 21854]
Key: class 0

Exercise: Does pIC50 meet or surpass 7 for CCN1CCN(C(=O)N(Cc2ccc(-c3nnc(C(F)F)o3)cc2F)c2ccc(F)c(Br)c2)CC1 [Compound 21656] ?
Key: class 1

Exercise: Test whether the compound CN1CCN(C(=O)N(Cc2ccc(-c3nnc(C(F)F)o3)cc2F)c2cccc(Cl)c2)CC1 [Compound 21467] records pIC50 of 7 or higher.
Key: class 1

Exercise: Confirm if pIC50 reported for the compound O=C(N1CCS(=O)(=O)CC1)N(Cc1ccc(-c2nnc(C(F)F)o2)cc1)c1cccc(-c2ccccc2)c1 [Compound 21502] is 7 or above.
Key: class 0
